test system: MDA-MB-231 cells; assay: Transwell invasion assay of MDA-MB-231 breast cancer cells; type: cell-based; settings: Homo sapiens; 0.01 μM; MDA-MB-231; read-out: Inhibition rates of invasion of cancer cells (%)
Examples of compounds with documented inhibition at 0.01 µM follow.

# compound, test system, inhibition at 0.01 µM (%)
data = [
    ("Cc1nc(N(c2ccccc2)c2ccccc2)c(C)c(C)c1O [BJ-1201]", "MDA-MB-231 cells", 2.52),
    ("Cc1nc(NC(=O)c2cccs2)c(C)c(C)c1O [Compound 8q]", "MDA-MB-231 cells", 47.6),
    ("Cc1nc(N)c(C)c(C)c1O [BJ-1101, 6-amino-2,4,5-trimethylpyridine-3-ol]", "MDA-MB-231 cells", 0.45),
    ("Cc1nc(NC(=O)c2ccc(F)cc2)c(C)c(C)c1O [Compound 8l]", "MDA-MB-231 cells", 8.57),
]
